These measurements were taken from the supplement of paper PMC10567573.

B1: PDLIM4 (parent)
chain: FLDERLYCESHAKARVKPPEGYDV

Variants of: B1
Assay Details: protein stability index of a GFP-peptide fusion (GPS, HEK-293T) (PSI 1-6); higher = more stable;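 also: lentivirally expressed fusions sorted by FACS into six bins by GFP to DsRed ratio, PSI derived from sequencing read proportions per bin multiplied by bin number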
Test Context: c terminus: a fixed tail appended
Reported protein stability index by item:
Output: the number by itself.

| Variant Notation | protein stability index |
| --- | --- |
| L6N | 3.08 |

Requested field: protein stability index. Item: L6F
3.03

Requested field: protein stability index. Item: K17R
1.87

Requested field: protein stability index. Item: V24S
2.82
